Molecular target: RORγ-LBD (Homo sapiens, UniProt P51449)
Sequence (P51449 269-508 limits assumed): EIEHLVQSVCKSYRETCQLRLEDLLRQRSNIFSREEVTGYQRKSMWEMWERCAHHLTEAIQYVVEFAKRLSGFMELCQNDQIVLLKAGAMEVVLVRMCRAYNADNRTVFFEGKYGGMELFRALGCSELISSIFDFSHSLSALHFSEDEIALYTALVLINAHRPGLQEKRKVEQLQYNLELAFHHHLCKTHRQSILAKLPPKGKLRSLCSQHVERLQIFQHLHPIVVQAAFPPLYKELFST
Test: RORγ-Ligand Binding Domain (LBD) TR-FRET Assay
pEC50: −log10 of the molar value.
Catalogue of molecules with associated pEC50

>>> value_reported("C[C@H](C[C@H]1CN(S(=O)(=O)c2cccc(C(F)(F)F)c2)c2cc(-c3cccc(Cl)c3F)ccc2O1)C(=O)O [Compound 46D]")
"> 6.30"

# pEC50 lookup, item CNS(=O)(=O)NC[C@H]1CN(S(=O)(=O)c2cccc(C(F)(F)F)c2)c2cc(-c3cc(F)ccc3F)ccc2O1
> 6.30

Likewise for O=C(CC[C@H]1CN(S(=O)(=O)c2cccc(C(F)(F)F)c2)c2cc(-c3cc(F)ccc3F)ccc2O1)NC[C@H](O)C(=O)O [Compound 23S] ?
> 6.30

* * *

Target: Gal4-RORγ-LBD (Homo sapiens, UniProt P51449)
Construct: expressed in transfected cells; host or cells: HEK-293 cells (pcDNA3.1neo plasmid)
Experiment: Gal4-RORγ Luciferase Reporter Assay in HEK-293T Cells
Type: cell-based
Settings: HEK-293 cells, luciferase reporter, with 2 μM ursolic acid
Reported metric: EC50

Consider the worked cases shown below.
>>> value_reported("COc1cccc(-c2ccc3c(c2)N(S(=O)(=O)c2cccc(C(F)(F)F)c2)C[C@H](CCC(=O)NCC(=O)O)O3)c1 [Compound 23K]")
"500 to 5000 nM"
>>> value_reported("CN(C)c1ccnc(-c2ccc3c(c2)N(S(=O)(=O)c2cccc(C(F)(F)F)c2)C[C@H](CCC(=O)O)O3)n1")
"500 to 5000 nM"
>>> value_reported("Cn1cc(-c2ccc3c(c2)N(S(=O)(=O)c2cccc(C(F)(F)F)c2)C[C@H](CCC(=O)O)O3)cn1")
"500 to 5000 nM"
>>> value_reported("O=C(O)CC[C@H]1CN(S(=O)(=O)c2cccc(C(F)(F)F)c2)c2cc(-c3cccc(F)c3F)ccc2O1")
"< 500 nM"
>>> value_reported("Cc1ncc(F)cc1-c1ccc2c(c1)N(S(=O)(=O)c1cccc(C(F)(F)F)c1)C[C@H](CCC(=O)O)O2")
"< 500 nM"
>>> value_reported("COc1cccc(-c2ccc3c(c2)N(S(=O)(=O)c2cccc(C(F)(F)F)c2)C[C@H](CCC(=O)N2CCC(C(=O)O)CC2)O3)c1 [Compound 23L]")
"< 500 nM"

# EC50 lookup, item Cc1cnc(-c2ccc3c(c2)N(S(=O)(=O)c2cccc(C(F)(F)F)c2)C[C@H](CCC(=O)O)O3)o1
500 to 5000 nM

Likewise for CCc1cccc(-c2ccc3c(c2)N(S(=O)(=O)c2cccc(C(F)(F)F)c2)C[C@H](CCC(=O)O)O3)c1 ?
< 500 nM

Likewise for O=c1[nH]c(OCCC[C@H]2CN(S(=O)(=O)c3cccc(C(F)(F)F)c3)c3cc(-c4cccc(C(F)(F)F)n4)ccc3O2)no1 [Compound 36C] ?
< 500 nM

Likewise for O=C(O)CC[C@H]1CN(S(=O)(=O)c2cccc(C(F)(F)F)c2)c2cc(-c3cccc(O)c3)ccc2O1 ?
500 to 5000 nM

Likewise for Cc1ccccc1-c1ccc2c(c1)N(S(=O)(=O)c1cccc(C(F)(F)F)c1)C[C@H](CCC(=O)O)O2 ?
< 500 nM

Likewise for O=C(O)CC[C@H]1CN(S(=O)(=O)c2cccc(C(F)(F)F)c2)c2cc(-c3cccc(OC(F)(F)F)c3)ccc2O1 ?
< 500 nM

Likewise for Cc1cccc(-c2ccc3c(c2)N(S(=O)(=O)c2cccc(C(F)(F)F)c2)C[C@H](CCC(=O)O)O3)c1 ?
< 500 nM

Likewise for Cc1c(F)cccc1-c1ccc2c(c1)N(S(=O)(=O)c1cccc(C(F)(F)F)c1)C[C@H](CCC(=O)O)O2 ?
< 500 nM
